Reported IC50 values are given for each entry in this list.
Target: MLK3 (Homo sapiens (Human))
Sequence (Q16584 whole entry, looked up): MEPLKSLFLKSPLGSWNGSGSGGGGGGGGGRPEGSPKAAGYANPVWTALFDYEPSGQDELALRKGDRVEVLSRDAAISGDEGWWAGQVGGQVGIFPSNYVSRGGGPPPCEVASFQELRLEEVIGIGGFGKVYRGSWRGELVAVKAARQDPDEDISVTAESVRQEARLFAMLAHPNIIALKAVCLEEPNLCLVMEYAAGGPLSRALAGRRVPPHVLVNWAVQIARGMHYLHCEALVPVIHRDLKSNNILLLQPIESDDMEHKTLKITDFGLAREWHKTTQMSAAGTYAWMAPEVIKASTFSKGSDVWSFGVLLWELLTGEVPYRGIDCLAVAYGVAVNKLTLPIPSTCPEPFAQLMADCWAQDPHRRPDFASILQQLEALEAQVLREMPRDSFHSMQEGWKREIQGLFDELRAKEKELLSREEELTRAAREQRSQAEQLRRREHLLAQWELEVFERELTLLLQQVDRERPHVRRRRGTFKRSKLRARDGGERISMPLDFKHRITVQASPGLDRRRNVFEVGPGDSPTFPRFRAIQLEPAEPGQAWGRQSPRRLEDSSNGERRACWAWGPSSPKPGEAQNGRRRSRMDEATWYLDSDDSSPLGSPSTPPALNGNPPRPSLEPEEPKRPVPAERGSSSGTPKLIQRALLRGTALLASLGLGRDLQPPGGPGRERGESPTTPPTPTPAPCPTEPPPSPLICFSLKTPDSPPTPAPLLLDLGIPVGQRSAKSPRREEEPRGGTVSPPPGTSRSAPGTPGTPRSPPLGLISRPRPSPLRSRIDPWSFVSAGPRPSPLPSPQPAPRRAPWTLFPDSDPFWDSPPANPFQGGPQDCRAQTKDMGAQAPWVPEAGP
Test: Evaluation of inhibitory activity of enzyme units, MLK3 ([γ-33P]-ATP filter assay)
Conditions: read-out: IC50(nM) MLK3
Numeric only. Scale: nM

Completed entries (count: 2):
// IC50 lookup, molecule = "CCS(=O)(=O)N1CC[C@H](Nc2c(Br)cnc3nc(-c4cc(C)n(-c5cc(NC(=O)CN(C)C)ccc5C)c4C)[nH]c23)C1" , result: 46

# IC50 (molecule: "CCS(=O)(=O)N1CC[C@H](Nc2c(Br)cnc3nc(-c4cc(C)n(-c5cccc(S(N)(=O)=O)c5)c4C)[nH]c23)C1" ) is 17

***
Per the records, this molecule ( "Cc1ccc(NS(C)(=O)=O)cc1-n1c(C)cc(-c2nc3c(Nc4cccc(S(N)(=O)=O)c4)c(Br)cnc3[nH]2)c1C" ) has IC50 equal to 38

====

Target: MLK3 (Homo sapiens (Human))
Assay: Evaluation of inhibitory activity of enzyme units, MLK3 ([γ-33P]-ATP filter assay)
Conditions: read-out: IC50(nM) MLK3
Binary label based on IC50 with cut-off 50 nM: below gives 1 (yes), not below gives 0 (no).

**Query** I wonder whether Cc1ccc(C(=O)N2CCOCC2)cc1-n1c(C)cc(-c2nc3ncc(Br)c(Nc4cccc(S(N)(=O)=O)c4)c3[nH]2)c1C [Example 94] has IC50 below 50 nM. Can you tell?
**Result** 0 (no)

**Query** Problem: For the compound CCS(=O)(=O)N1CC[C@H](Nc2c(Br)cnc3nc(-c4cc(C)n(-c5cccc(NC(=O)CN6CCN(C)CC6)c5)c4C)[nH]c23)C1 [Example 65] , is IC50 under 50 nM?
**Result** 1 (yes)

Further cases:
**Query** Quick check: IC50 of CCS(=O)(=O)N1CC[C@H](Nc2c(Br)cnc3[nH]c(-c4cc(C)n(-c5ccc(C(=O)NCCN6CCN(C)CC6)cc5)c4C)nc23)C1 [Example 72] under 50 nM?
**Result** 1 (yes)

**Query** is_below(IC50, 50 nM) for CCS(=O)(=O)N1CC[C@H](Nc2c(Br)cnc3nc(-c4cc(C)n(-c5cccc(NC(=O)CN6CCOCC6)c5C)c4C)[nH]c23)C1 [Example 85] ?
**Result** 1 (yes)

**Query** Confirm or reject: IC50 of Cc1cc(-c2nc3c(Nc4cccc(S(N)(=O)=O)c4)c(Br)cnc3[nH]2)c(C)n1-c1ccc(S(=O)(=O)N2CCOCC2)cc1 [Example 29] lies strictly below 50 nM
**Result** 1 (yes)

**Query** Just wondering, is IC50 of Cc1cc(-c2nc3c(Nc4cccc(S(N)(=O)=O)c4)c(Br)cnc3[nH]2)c(C)n1-c1cccc(C(=O)N2CCOCC2)c1 [Example 28] below 50 nM?
**Result** 0 (no)

**Query** Is the reported IC50 for CCS(=O)(=O)N1CC[C@H](Nc2c(Br)cnc3[nH]c(-c4cc(C)n(-c5ccc(C(=O)NCCN(C)C)cc5)c4C)nc23)C1 [Example 62] strictly below 50 nM?
**Result** 1 (yes)

**Query** In plain terms, does Cc1cc(-c2nc3ncc(Br)c(Nc4cccc(S(N)(=O)=O)c4)c3[nH]2)c(C)n1-c1cccc(OCCN2CCOCC2)c1 [Example 38] come in under 50 nM for IC50?
**Result** 0 (no)

**Query** For this compound, is IC50 lower than 50 nM? CCS(=O)(=O)N1CC[C@H](Nc2c(Br)cnc3nc(-c4cc(C)n(-c5cc(C(=O)NCCN(C)C)ccc5C)c4C)[nH]c23)C1 [Example 93]
**Result** 0 (no)

**Query** Please check: IC50 for CCS(=O)(=O)N1CC[C@H](Nc2c(Br)cnc3[nH]c(-c4cc(C)n(-c5ccc(C(=O)N6CCOCC6)cc5)c4C)nc23)C1 [Example 5] , strictly under 50 nM or not?
**Result** 1 (yes)
